Origin of values: ChEMBL document CHEMBL1201862

test system: H4; assay: Luminescence Cell-Based Dose Response HTS to Identify Activators of 5'UTR Stem-Loop Driven Prion Protein mRNA Translation in H4 Neuroglioblastoma Cells. [Related pubchem assays: 1829 (Project Summary), 1814 (Primary HTS)]; format: functional; conditions: Homo sapiens
Active and inactive are the calls of the source. Rule as the data show it: actives have a measured EC50 and inactives only a lower limit.
assayMetric: EC50

structureSmilesString: Nc1ccc(S(=O)(=O)Nc2nccc(/C=C/c3ccc(Cl)cc3Cl)n2)cc1
EC50: > 120 µM (not active)

structureSmilesString: O=C(CN1CCCCC1)Nc1scc2c1c(=O)oc1ccccc12
EC50: 59.7 µM (active)

structureSmilesString: CC(=O)c1cnc2nc(SCc3ccccc3)nn2c1C
EC50: 74.8 µM (active)

Q: Quick one: EC50 for `COc1ccc(/C=C/C(=O)c2c(C)nc3ccccn23)cc1` ?
Ans: > 120 µM (not active)

Q: Quick one: EC50 for `O=C(/C=C/c1c(F)cccc1Cl)Nc1ncccn1` ?
Ans: 7.88 µM (active)
